The reported measurements were obtained from patent US12268683B2.

# EXPERIMENTAL_TARGET: KCNQ2 (Homo sapiens)
# METHOD_SUMMARY: TEVC of homomeric KCNQ2 expressed in Xenopus oocytes
# Format: cell-based
# CONDITION_DETAILS: Example 4; read-out: EC50, ΔV0.5act of KCNQ2
METRIC: pEC50
pEC50 is a log-scale quantity: -log10 of the concentration expressed in molar.

Ask: Supply pEC50 value. Item: NC(C(=O)O)c1ccc(F)cc1 (stereo not shown)
Result: 7.16

---

# EXPERIMENTAL_TARGET: KCNQ2/3 (Homo sapiens, UniProt O43525+O43526)
# METHOD_SUMMARY: TEVC of heteromeric KCNQ2/3 channels expressed in Xenopus laevis oocytes
# Format: cell-based
# CONDITION_DETAILS: Example 4; read-out: EC50, shift in voltage dependence of KCNQ2/3 activation (ΔV0.5act)
METRIC: pEC50
pEC50 is a log-scale quantity: -log10 of the concentration expressed in molar.

NC(C(=O)O)c1ccc(F)cc1 (centres unmarked); 7.21

Let's switch to this compound now.
Ask: Report pEC50 on KCNQ2/3 (Homo sapiens, UniProt O43525+O43526) for this entry: "CS(=O)(=O)N(CC(=O)O)c1cccc(F)c1"
Result: 7.29
